tested_on: UniProtKB P32238
Sequence (P32238 whole entry): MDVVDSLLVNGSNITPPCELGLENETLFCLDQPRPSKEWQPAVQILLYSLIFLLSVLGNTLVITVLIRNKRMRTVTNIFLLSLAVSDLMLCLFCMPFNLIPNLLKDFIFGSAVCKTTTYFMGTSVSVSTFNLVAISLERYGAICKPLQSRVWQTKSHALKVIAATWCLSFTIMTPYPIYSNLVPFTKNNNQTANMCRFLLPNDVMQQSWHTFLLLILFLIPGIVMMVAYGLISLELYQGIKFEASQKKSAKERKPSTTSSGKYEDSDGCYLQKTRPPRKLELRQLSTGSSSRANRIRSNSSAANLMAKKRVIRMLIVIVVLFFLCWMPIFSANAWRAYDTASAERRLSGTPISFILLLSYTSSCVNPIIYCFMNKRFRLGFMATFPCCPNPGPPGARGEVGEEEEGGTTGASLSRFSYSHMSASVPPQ
test_method_notes: Displacement of [3H]L-364718 from human recombinant CCK1 receptor expressed in PC3 cells
Assay type: cell-based, PC-3
test_readout: Ki

[[record]]
smiles_notation = "Cc1ccccc1C(=O)CN1C(=O)N(CC(=O)Nc2cccc(C(=O)O)c2)N=C(C2CCCCC2)c2ccccc21"
assay_value = "> 10 µM"

[[record]]
smiles_notation = "CC(C)CCN1C(=O)N(CC(=O)Nc2cccc(C(=O)O)c2)N=C(C2CCCCC2)c2ccccc21"
assay_value = "> 10 µM"

[[record]]
smiles_notation = "CC(C)(C)C(=O)CN1C(=O)N(CC(=O)Nc2cccc(C(=O)O)c2)N=C(C2CCCCC2)c2ccccc21"
assay_value = "> 10 µM"

[[record]]
smiles_notation = "O=C(O)c1cccc(NC(=O)c2nc(C3CCCCC3)[nH]c2COC23CC4CC(CC(C4)C2)C3)c1"
assay_value = "> 10 µM"

[[record]]
smiles_notation = "CC(C)(C)C(=O)CN1C(=O)N(CC(=O)Nc2cccc(C(=O)O)c2)N=C(C2CCCC2)c2ccccc21"
assay_value = "> 10 µM"

[[record]]
smiles_notation = "O=C(CN1N=C(C2CCCCC2)c2ccccc2N(CC(=O)N2CCCC2)C1=O)Nc1cccc(C(=O)O)c1"
assay_value = "> 10 µM"

[[record]]
smiles_notation = "CC(=O)CN1C(=O)N(CC(=O)Nc2cccc(C(=O)O)c2)N=C(C2CCCCC2)c2ccccc21"
assay_value = "> 10 µM"

[[record]]
smiles_notation = "CC(C)(C)C(=O)CN1C(=O)N(CC(=O)Nc2cccc(CC(=O)O)c2)N=C(C2CCCCC2)c2ccccc21"
assay_value = "> 10 µM"

[[record]]
smiles_notation = "O=C(CN1N=C(C2CCCCC2)c2ccccc2N(CC(=O)C2CCCC2)C1=O)Nc1cccc(C(=O)O)c1"
assay_value = "> 10 µM"

[[record]]
smiles_notation = "CC(C)(C)C(=O)CN1C(=O)N(CC(=O)Nc2cccc(S(=O)(=O)CC(=O)O)c2)N=C(C2CCCCC2)c2ccccc21"
assay_value = "> 10 µM"

[[record]]
smiles_notation = "CN1C(=O)N(CC(=O)Nc2cccc(C(=O)O)c2)N=C(C2CCCCC2)c2ccccc21"
assay_value = "> 10 µM"


---

tested_on: Gastrin/cholecystokinin type B receptor (Rattus norvegicus, UniProt P30553)
Sequence (P30553 whole entry, the tested form may be a part): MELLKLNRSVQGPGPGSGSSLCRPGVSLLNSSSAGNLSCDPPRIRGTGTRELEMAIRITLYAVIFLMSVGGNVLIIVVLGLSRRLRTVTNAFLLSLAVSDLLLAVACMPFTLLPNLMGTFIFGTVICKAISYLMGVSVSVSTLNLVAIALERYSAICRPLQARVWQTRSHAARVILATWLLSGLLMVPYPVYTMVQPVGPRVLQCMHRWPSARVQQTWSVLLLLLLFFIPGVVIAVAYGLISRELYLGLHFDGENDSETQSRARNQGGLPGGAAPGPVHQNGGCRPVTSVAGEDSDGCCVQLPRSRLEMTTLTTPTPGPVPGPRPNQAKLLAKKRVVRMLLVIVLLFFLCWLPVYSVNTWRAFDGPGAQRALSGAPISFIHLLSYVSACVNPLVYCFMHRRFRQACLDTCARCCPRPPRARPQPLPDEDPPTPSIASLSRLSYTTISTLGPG
test_method_notes: Antagonist activity at CCK2 receptor in perfused rat stomach assessed as inhibition of pentagastrin-stimulated gastric acid secretion
Type: functional, tissue-based
experimental_context: read-out: pA2 (converted)
Kb overview
test_readout: Kb (nM)

[[record]]
smiles_notation = "CC(C)(C)C(=O)CN1C(=O)N(CC(=O)Nc2cccc(SCC(=O)O)c2)N=C(C2CCCCC2)c2ccccc21"
tested_on = "Gastrin/cholecystokinin type B receptor (Rattus norvegicus, UniProt P30553)"
unit_spec = "nM"
assay_value = 2.75

[[record]]
smiles_notation = "CC(C)(C)C(=O)CN1C(=O)N(CC(=O)Nc2cccc(CC(=O)O)c2)N=C(C2CCCCC2)c2ccccc21"
tested_on = "Gastrin/cholecystokinin type B receptor (Rattus norvegicus, UniProt P30553)"
unit_spec = "nM"
assay_value = 9.77

[[record]]
smiles_notation = "O=C(CN1N=C(C2CCCCC2)c2ccccc2N(CC(=O)C2CCCC2)C1=O)Nc1cccc(-c2nc(=O)o[nH]2)c1"
tested_on = "Gastrin/cholecystokinin type B receptor (Rattus norvegicus, UniProt P30553)"
unit_spec = "nM"
assay_value = 1.82

[[record]]
smiles_notation = "CC(C)(C)C(=O)CN1C(=O)N(CC(=O)Nc2cccc(-c3nn[nH]n3)c2)N=C(C2CCCCC2)c2ccccc21"
tested_on = "Gastrin/cholecystokinin type B receptor (Rattus norvegicus, UniProt P30553)"
unit_spec = "nM"
assay_value = 7.76

